# system under test: T1, murine GPC3-his protein (Sino Biological, Cat. No. 50989-M08B) (murine, UniProt Q8CFZ4 25-558)
# T1 construct: Bought protein; also called murine GPC3 protein
# T1 sequence (Q8CFZ4 25-558 limits assumed): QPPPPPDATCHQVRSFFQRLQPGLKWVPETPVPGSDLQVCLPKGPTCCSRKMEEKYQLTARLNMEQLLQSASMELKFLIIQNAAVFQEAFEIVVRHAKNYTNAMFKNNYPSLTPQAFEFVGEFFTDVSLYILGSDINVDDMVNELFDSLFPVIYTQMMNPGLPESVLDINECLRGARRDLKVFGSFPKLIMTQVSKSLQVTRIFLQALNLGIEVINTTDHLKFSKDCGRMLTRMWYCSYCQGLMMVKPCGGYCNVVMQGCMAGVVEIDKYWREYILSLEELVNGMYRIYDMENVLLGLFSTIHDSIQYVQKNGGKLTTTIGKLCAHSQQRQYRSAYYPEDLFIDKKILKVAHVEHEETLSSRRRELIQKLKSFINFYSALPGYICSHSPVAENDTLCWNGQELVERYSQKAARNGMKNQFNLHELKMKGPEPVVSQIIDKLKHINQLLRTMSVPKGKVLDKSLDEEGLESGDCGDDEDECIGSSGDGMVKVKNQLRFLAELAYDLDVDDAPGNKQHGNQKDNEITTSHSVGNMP
# protocol text: ELISA, coated murine GPC3-His;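 further: antigen coated on plates at 1 µg/mL, test antibody bound for 2 h at 37 °C, detected with HRP-conjugated secondary antibody and TMB substrate after acid stop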
readout: OD450 at 0.0001 nM antibody (OD450 nm)

>>> experimental_value("F4.21.16 human-murine chimeric antibody (antibody, human IgG1, kappa, V domains shown) VH: DVQLQESGPGLVKPSQSLSLTCSVTGYSITSGYYWNWIRQFPGNKLEWMGYISYDVTVNYNPSLKNRISITRDTSKNQFFLKLNSVTTEDTATYYCATITSVASMDHWGQGTSVTVSS VL: DILMTQTPLSLPVSLGDQASISCRSSQNIVHRNGNTYLEWYLQKPGQSPKLLLYKVSNRFSGVPDRFSGSGSGTDFTLKISRVEAEDLGIYYCFQGSHFPFTFGSGTKLEIKR")
0.05
>>> experimental_value("F4.26.1 human-murine chimeric antibody (antibody, human IgG1, kappa, V domains shown) VH: QVQLKQSGPGLVQPSQSLSITCTVSGFSLTSYGVHWVRQSPGKGLEWLGVIWSSGNTDYNAVLISRLSIKKDDSKSQVFFKMNSPQVDDSAIYYCGRNGGWLLRGFMDFWGQGTSVTVSS VL: DVVMTQTPLSLPVSLGDQASISCRSSQSLLHSNGNTYLHWYLQRSGQSPNLLIYKVSNRFSGVPDRFSGGGSGTDFTLKISRVEAEDLGIYFCSQSTHVPWTFGGGTKLEIKR")
0.06
>>> experimental_value("F3.81.19 human-murine chimeric antibody (antibody, human IgG1, kappa, V domains shown) VH: QVQLQQSGAELVRPGASVKLSCKASGYTFTDYEMHWVKQTPVHGLEWIGTIDPETGNTAYNQKFKGKATLTADKSSSTAYMELRSLTSEDSAVYYCTRPYSLTYWGQGTLVTVSA VL: DVLLTQTPLSLPVSLGDQASISCRSSQSFVHSNGDTYLQWYLQKPGQSPKLLIYKVSNRFSGVPDRFSGSGSGTDFTLKISRVEAEDLGVYYCFQGSHVPYTFGSGTKLEIKR")
0.05
>>> experimental_value("F4.18.4 human-murine chimeric antibody (antibody, human IgG1, kappa, V domains shown) VH: QVQLHQSGAEMAKPGASVNLSCKTSGFTFTDYGISWVKQRTRQGLEWIGDIYPRHINIYYNEKFKDKATLTADRSSSTAYMELRSMTSEDSAVYFCARRGTTGRGALDYWGQGTSLTVSS VL: DILLTQSPAILSVSPGERVSFSCRASQSIGTSIHWYQQRTNGSPRLLIKYAFESISGIPSRFGGSGSRTDFTLTINSVESEDIADYYCQQTYNWPYTFGGGTKLEIKR")
0.18
>>> experimental_value("F3.38.7 human-murine chimeric antibody (antibody, human IgG1, kappa, V domains shown) VH: QVQLQQSGAELVRPGASVKLSCKASGYTFTDYEIHWVKQTPVLGLEWIGAIDPKTGNTAYNQKFMGKATLTADKSSTTAYMDLRSLTSEDSAVYYCTRYFSFAYWGQGTLVTVSA VL: DVLMTQTPLSLPVSLGDQASISCRSSQTFVHSNGNTYLQWYLQKPGQSPKLLIYKVSNRFSGVPDRFSGSGSGTDFTLKISRVEAEDLGVYYCFQGSHVPYTFGSGTKLEIKR")
0.06
>>> experimental_value("F1.145.22 human-murine chimeric antibody (antibody, human IgG1, kappa, V domains shown) VH: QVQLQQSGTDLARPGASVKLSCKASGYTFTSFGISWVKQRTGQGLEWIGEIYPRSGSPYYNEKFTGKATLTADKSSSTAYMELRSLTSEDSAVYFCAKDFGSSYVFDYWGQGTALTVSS VL: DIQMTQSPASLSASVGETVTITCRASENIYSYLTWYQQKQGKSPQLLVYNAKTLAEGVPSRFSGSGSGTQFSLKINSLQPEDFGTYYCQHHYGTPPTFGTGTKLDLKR")
0.05
>>> experimental_value("F1.9.19 human-murine chimeric antibody (antibody, human IgG1, kappa, V domains shown) VH: DVQLQESGPGLVKPSQSLSLTCSVTGYSITSGYYWNWIRQFPGNRLEWMAYISYDGINNYNPSLKNRISIARDTSTNQFFLKLNSVTSEDTATYYCATTTEVALFDHWGQGTTLTVSS VL: DVLLTQTPLSLPVSLGDQASISCRSSQNIVHGNGNTYLEWFLQKPGQSPKLLIYKVSNRFSGVPDRFSGSGSGTDFTLKISRVEAEDLGLYYCFQASHVPWTFGGGTKLEIKR")
0.05
